The values you see were collected from patent US20150175665A1.

Target: T1, human recombinant GIP receptor (human, UniProt P48546 22-466)
T1 construct: whole, on cells; Assayed as washed membranes of CHO-K1 cells expressing the receptor; also called hGIP receptor
T1 sequence (looked up): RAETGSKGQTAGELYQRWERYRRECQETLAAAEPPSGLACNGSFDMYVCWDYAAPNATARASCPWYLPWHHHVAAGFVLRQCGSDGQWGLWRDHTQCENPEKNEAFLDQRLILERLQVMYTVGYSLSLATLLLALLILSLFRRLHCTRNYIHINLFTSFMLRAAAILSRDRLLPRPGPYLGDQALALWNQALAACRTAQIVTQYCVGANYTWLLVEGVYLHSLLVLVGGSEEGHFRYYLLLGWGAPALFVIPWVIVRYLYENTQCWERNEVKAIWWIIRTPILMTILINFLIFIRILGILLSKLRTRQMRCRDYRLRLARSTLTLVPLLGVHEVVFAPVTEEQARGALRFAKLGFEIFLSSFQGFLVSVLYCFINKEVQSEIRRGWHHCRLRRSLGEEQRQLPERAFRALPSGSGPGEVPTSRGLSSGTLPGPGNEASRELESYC
Assay: displacement of [125I]GIP, membranes of CHO-K1 cells expressing human GIP receptor
[ ]: non-standard residue; d: D form. The star is where a group is joined. Desaminotyrosyl = O=C(CCc1ccc(O)cc1)*; Pip = O=C(O)[C@@H]1CCCCN1; Ac6c = NC1(C(=O)O)CCCCC1
outcomeMeasure: Ki (nM)

Worked cases, answers included:
binder	testResult
XXEGTFISDYXIAMDKIHQQDFVNWLLAQKGKKNDWKHNIXQ (3-Pal at 1; Aib at 2; A5c at 11 and 41) [(3-Pal^1, Aib^2, A5c^11, 41)hGIP(1-42)-OH]	9.75
XXEGTFISDYXIAMDKIHQQDFVNWLLAQKGKKNDWKHNITQH (3MeO-Tyr at 1; Aib at 2; A5c at 11) [(3MeO-Tyr^1, Aib^2, A5c^11, His^43)hGIP(1-43)-OH]	3.9
YXEGTFISDYXIAMDKIHQQDFVNWLLAQKGKKNDWKHNIXQ (Tyr(Me) at 1; Aib at 2; A5c at 11 and 41) [[Tyr(Me)^1, Aib^2, A5c^11, 41]hGIP(1-42)-OH]	4.5
FXEGTFISDYXIAMDKIHQQDFVNWLLAQKGKKNDWKHNIXQ (3F-Phe at 1; Aib at 2; A5c at 11 and 41) [(3F-Phe^1, Aib^2, A5c^11, 41)hGIP(1-42)-OH]	5.43
XXEGTFISDYSIAXDKIHQQDFVNWLLAQK (4Hppa at 1; Aib at 2; Nle at 14; C-terminal amide) [(4Hppa^1, Aib^2, Nle^14)hGIP(1-30)-NH2]	2.95
YXEGTFISDYXIAXDKIHQQDFVNWLLAQKGKKNDWKHNITQH (3Br-Tyr at 1; Aib at 2; A5c at 11; Nle at 14) [(3Br-Tyr^1, Aib^2, A5c^11, Nle^14, His^43)hGIP(1-43)-OH]	1.09
FXEGTFISDYXIAMDKIHQQDFVNWLLAQKGKKNDWKHNIXQ (3OH-Phe at 1; Aib at 2; A5c at 11 and 41) [(3OH-Phe^1, Aib^2, A5c^11, 41)hGIP(1-42)-OH]	7.52
FXEGTFISDYXIAXDKIHQQDFVNWLLAQKGKKNDWKHNITQ (3,4,5F-Phe at 1; Aib at 2; A5c at 11; Nle at 14) [(3,4,5F-Phe^1, Aib^2, A5c^11, Nle^14)hGIP(1-42)-OH]	31.1
YAEGTFISDYXIAXDKIHQQDFVNWLLAQKGKKNDWKHNITQH (3Cl-Tyr at 1; D-Ala at 2; A5c at 11 and 14, X stands for a non-natural residue) [(3Cl-Tyr^1, D-Ala^2, A5c^11, 14, His^43)hGIP(1-43)-OH]	5.06

(I) FXEGTFISDYXIAXDKIHQQDFVNWLLAQKGKKNDWKHNITQ (3F-Phe at 1; Aib at 2; A5c at 11; Nle at 14) [(3F-Phe^1, Aib^2, A5c^11, Nle^14)hGIP(1-42)-OH]
(II) [Desaminotyrosyl]A[Pip]GTF[Ac6c]SDYSIAMDKIHQQDFVNWLLAQKGKKNDWKHNITQ-OH [(4Hppa^1, hPro^3, A6c^7)hGIP(1-42)-OH]
Quick one: lower Ki, I or II ? Output the label that corresponds to your choice. I
(I: 2.7 nM, II: 707 nM)
